experiment: self-splicing fitness, log relative to wild type (ln ratio); higher = more splicing; Tetrahymena group I intron in knt gene, E. coli kanamycin selection, DiMSum; sequences stand for … in CUCUCU…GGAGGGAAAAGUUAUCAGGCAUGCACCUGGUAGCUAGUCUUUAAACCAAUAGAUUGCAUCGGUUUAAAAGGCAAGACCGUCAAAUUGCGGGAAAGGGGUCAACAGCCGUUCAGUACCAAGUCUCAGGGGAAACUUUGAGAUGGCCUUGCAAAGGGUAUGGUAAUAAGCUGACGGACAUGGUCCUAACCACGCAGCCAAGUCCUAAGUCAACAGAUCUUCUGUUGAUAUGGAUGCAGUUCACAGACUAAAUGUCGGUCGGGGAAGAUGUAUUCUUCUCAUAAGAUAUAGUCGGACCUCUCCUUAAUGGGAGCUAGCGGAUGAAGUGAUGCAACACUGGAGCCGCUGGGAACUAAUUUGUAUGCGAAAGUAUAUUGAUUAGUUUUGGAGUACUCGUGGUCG;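 note: selection with 25 µg/mL kanamycin versus none on LB agar overnight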
condition.context: 30 °C
Please mark true (1) if the recorded self-splicing fitness (ln) is equal to or greater than -2, and false (0) if it falls below.

sequence.content | class.name
GACAAGCAAUAUUACGCAAG | false (0)
AAAUAGCAAUAUUACGAUCU | true (1)
ACGGAGCAAUAUUACGGCGU | false (0)
AUCCAGCAAUAUUACGUGUG | true (1)
CUCGAGCAAUAUUACGCGCA | false (0)
UGCGAGCAAUAUUACGAUAC | false (0)
CGGUAGCAAUAUUACGUGUU | false (0)
GCACAGCAAUAUUACGAAUU | true (1)
CGAUAGCAAUAUUACGAGAA | false (0)
UCGAAGCAAUAUUACGAGUU | false (0)
UUCGAGCAAUAUUACGUAAG | false (0)
GAGUAGCAAUAUUACGGCAU | true (1)
UUAUAGCAAUAUUACGCAGC | false (0)
CAAUAGCAAUAUUACGACCU | false (0)
GCCAAGCAAUAUUACGGGCU | false (0)
UGCAAGCAAUAUUACGGAGG | false (0)
AGCAAGCAAUAUUACGUGAG | false (0)
AAACAGCAAUAUUACGCGCG | true (1)
CCCCAGCAAUAUUACGGAAC | false (0)
AACGAGCAAUAUUACGCCGU | false (0)
AGGCAGCAAUAUUACGGUCC | true (1)
AUACAGCAAUAUUACGCUCU | true (1)
CCACAGCAAUAUUACGCGCU | false (0)
UAUCAGCAAUAUUACGGACC | false (0)
CUUAAGCAAUAUUACGAUAU | false (0)
GCGUAGCAAUAUUACGGUCG | true (1)
CGCGAGCAAUAUUACGAUCU | false (0)
GUAGAGCAAUAUUACGAGGA | false (0)
CAAGAGCAAUAUUACGCAUA | false (0)
GCCAAGCAAUAUUACGAUGU | true (1)
CUGCAGCAAUAUUACGAGCG | true (1)
GUACAGCAAUAUUACGUACU | false (0)
UAAAAGCAAUAUUACGCCUG | true (1)

* * *

experiment: self-splicing fitness, log relative to wild type (ln ratio); higher = more splicing; Tetrahymena group I intron in knt gene, E. coli kanamycin selection, DiMSum; sequences stand for … in CUCUCU…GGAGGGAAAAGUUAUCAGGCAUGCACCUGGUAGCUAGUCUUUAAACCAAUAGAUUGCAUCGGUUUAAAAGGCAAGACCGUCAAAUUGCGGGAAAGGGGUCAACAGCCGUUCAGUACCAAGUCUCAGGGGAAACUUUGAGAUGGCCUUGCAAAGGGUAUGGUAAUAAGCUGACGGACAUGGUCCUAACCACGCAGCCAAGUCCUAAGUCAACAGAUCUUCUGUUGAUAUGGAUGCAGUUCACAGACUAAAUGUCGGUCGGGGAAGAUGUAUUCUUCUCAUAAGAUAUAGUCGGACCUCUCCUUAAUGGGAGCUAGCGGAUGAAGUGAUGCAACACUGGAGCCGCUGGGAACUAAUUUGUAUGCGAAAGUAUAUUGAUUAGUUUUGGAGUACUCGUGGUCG
condition.context: 30 °C

sequence.content | self-splicing fitness (ln)
UGCUAGCAAUAUUACGAUGG | -1.52
GUACAGCAAUAUUACGCCCC | -1.32
AGGAAGCAAUAUUACGGGCA | -1.55
CUUGAGCAAUAUUACGGUGG | -2.55
CUAAAGCAAUAUUACGGUCU | -3.74
UGUCAGCAAUAUUACGCGGU | -3.09
GCAGAGCAAUAUUACGCUUA | -1.76
GUUGAGCAAUAUUACGUCAA | -2.76
GUGUAGCAAUAUUACGAUAA | -2.6
AUGCAGCAAUAUUACGACGU | -0.0321
UUUCAGCAAUAUUACGAACU | -1.23
ACAAAGCAAUAUUACGAGAA | -2.54
GAUAAGCAAUAUUACGAAGC | -2.17
UCACAGCAAUAUUACGCAGA | -2.54
CAUCAGCAAUAUUACGGCUG | -1.76
UACGAGCAAUAUUACGGAAC | -4.04
